B1: library; a variant is named by its letters at N, in order (parent)
chain: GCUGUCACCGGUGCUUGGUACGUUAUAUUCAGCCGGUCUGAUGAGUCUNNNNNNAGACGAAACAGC

- Variants of: B1
- test description: normalized RNA/DNA level with ligand (relative to sTRSVctl = 100) (log10 (% of sTRSVctl)); HEK293T overexpressing SLC46A1; ligand concentration (+) RNA-Seq: 6 mM; higher = less ribozyme self-cleavage, higher mRNA level
- details: with (6R,S)-folinic acid; ligand present: yes
metric name: normalized RNA/DNA level with ligand (log10)
Keep the answer to the number alone.

Example entries begin here.
mutation spec	reported result
GGAUUG	2.05
AGGGUG	2.04
AUGUCG	1.99
UAUUCG	1.94
UUGUAU	2.01

Problem: Endpoint output: normalized RNA/DNA level with ligand (log10) of GCCGAG . Value?
Result: 2.02

Problem: Endpoint output: normalized RNA/DNA level with ligand (log10) of UGGGGU . Value?
Result: 2.03
